The values you see were collected from patent US20220324835A1.

Would you mind telling me the reported fold induction at 0.3 µM of each entry?
test system: T-cell; experiment: IL-2 secretion from T-cells co-stimulated with anti-CD3 and anti-CD28 antibody (Biological Example 2); assay type: cell-based, human; conditions: Homo sapiens, T-cell, fold change over baseline; 0.3 μM Cbl-b inhibitor; primary human total T-cells; read-out: IL-2 secretion Anti-CD3/Anti-CD28 stimulation

[[record]]
compound = "C[C@H](Cc1nncn1C)c1cc(NC2COC2)cc(N2Cc3c(cccc3C(F)(F)F)C2=O)c1"
result = "< 1"

[[record]]
compound = "C[C@H](Cc1nncn1C)c1cccc(NC(=O)c2cc(C(=O)N3CC[C@](C)(O)C3)ccn2)c1"
result = "< 1"

[[record]]
compound = "Cc1cc(C(=O)Nc2cccc([C@H]3C[C@H]3c3nncn3C)c2)nc(C2CC2)n1"
result = "1.01 to 2.5"


I'm hoping you can list fold induction at 0.3 µM for every compound here, please.
1. C[C@H](Sc1nncn1C)c1cccc(NC(=O)c2cc3cc(OCc4ccn[nH]4)ccc3cn2)c1
2. Cc1cc(C(=O)Nc2cccc(C3(Cc4nncn4C)COC3)c2)nc(C2CC2)c1
3. Cc1cc(C(=O)Nc2cccc([C@@H](C)Cc3nncn3C)c2)nc(C2CC2)n1
4. CNC(=O)COc1ccc2cnc(C(=O)Nc3cccc([C@H](C)Sc4nncn4C)c3)cc2c1 [Compound 306a]
5. Cn1cnnc1CC(C)(C)c1cccc(NC(=O)c2cccc(C(F)(F)F)n2)c1

Output line:
["1.01 to 2.5", "5 to 7.5", "1.01 to 2.5", "< 1", "1.01 to 2.5"]

====

Would you mind telling me the reported pIC50 of each entry?
biological target: UniProt:Q13191; assay: Cbl-b activity assay (Cbl-b inhibition assay), TR-FRET of Cbl-b interaction with UbcH5B-Ub; assay type: biochemical; details: assay buffer with 100 mM NaCl, 60 nM Src kinase; read-out: Cbl-b activity IC50
Sequence (Q13191 36-427): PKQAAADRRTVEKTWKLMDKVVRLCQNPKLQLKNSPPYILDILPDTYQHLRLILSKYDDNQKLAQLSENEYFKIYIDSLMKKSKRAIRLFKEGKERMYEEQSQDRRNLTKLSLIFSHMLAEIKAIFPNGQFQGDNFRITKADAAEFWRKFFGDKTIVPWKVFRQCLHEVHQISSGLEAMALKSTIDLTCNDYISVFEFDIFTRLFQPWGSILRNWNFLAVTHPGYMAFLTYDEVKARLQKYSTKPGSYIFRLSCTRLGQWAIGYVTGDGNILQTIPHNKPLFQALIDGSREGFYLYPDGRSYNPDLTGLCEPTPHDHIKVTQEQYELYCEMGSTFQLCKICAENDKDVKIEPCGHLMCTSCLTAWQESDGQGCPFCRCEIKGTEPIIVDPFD
pIC50: −log10 of the molar value.

// below: answered molecules
[[record]]
molecule = "C[C@H](Cc1nncn1C)c1cccc(N2Cc3c(ccnc3C3CC3)C2=O)c1 [Compound 257]"
result = "6.52 to 7.00"

[[record]]
molecule = "Cn1cnnc1CC(C)(C)c1cccc(N2Cc3c(cc(C4CC4)cc3C(F)(F)F)C2=O)c1 [Compound 477]"
result = "> 7.00"

[[record]]
molecule = "C[C@H](Cc1nncn1C)c1cccc(N2Cc3c(cc(CN4CC(C)(O)C4)cc3C(F)(F)F)C2=O)c1 [Compound 397]"
result = "> 7.00"

[[record]]
molecule = "CN1CC[C@@H](O)[C@@H](Cc2cc3c(c(C(F)(F)F)c2)CN(c2cccc(C4(Cc5nncn5C)COC4)c2)C3=O)C1 (racemic) [Compound 532]"
result = "> 7.00"

[[record]]
molecule = "C[C@H](Cc1nncn1C)c1cc(-c2cncs2)nc(N2Cc3c(cccc3C(F)(F)F)C2=O)c1 [Example 682]"
result = "6.00 to 6.52"


I'm hoping you can list pIC50 for every molecule here, please.
1. C[C@H](Sc1nncn1C)c1cccc(NC(=O)c2cc(C(F)(F)F)cc(C(F)(F)F)n2)c1 [Compound 64]
2. Cn1cnnc1CC1(c2cccc(N3Cc4c(cc(CN5CC[C@H](F)[C@@H](F)C5)cc4C(F)(F)F)C3=O)c2)COC1 [Example 626a]
3. C[C@H](Sc1nncn1C)c1cccc(NC(=O)c2cc3c(Cl)cccc3[nH]2)c1 [Compound 78]
4. C[C@H](c1cc2c(c(C(F)(F)F)c1)CN(c1cccc(C3(Cc4nncn4C)COC3)c1)C2=O)N1CC(C)(F)C1 [Compound 543b]

Output line:
1: 6.00 to 6.52; 2: > 7.00; 3: 6.52 to 7.00; 4: > 7.00

I'm hoping you can list pIC50 for every molecule here, please.
1. C[C@H](Sc1nncn1C)c1ccnc(NC(=O)c2cccc(Cl)n2)c1 [Compound 124]
2. Cn1cnnc1CC1(c2cccc(N3Cc4c(cc(CN5CCOC(CCO)C5)cc4C(F)(F)F)C3=O)c2)COC1 (stereo not drawn) [Example 717]
3. Cc1cc(C(=O)Nc2cc(C3CC3)cc(C3(Cc4nncn4C)COC3)c2)nc(C2CC2)n1 [Example 698]
4. C[C@H](Cc1nncn1C)c1cccc(NC(=O)c2cc(C(=O)N3C[C@@H](O)C[C@H]3C)ccn2)c1 [Compound 224]

Output line:
5.52 to 6.00
> 7.00
> 7.00
6.52 to 7.00

I'm hoping you can list pIC50 for every molecule here, please.
1. Cn1cnnc1[C@@H](F)[C@](C)(F)c1cccc(N2Cc3c(cccc3C(F)(F)F)C2=O)c1 (stereo in doubt) [Compound 480]
2. CNCCNC(=O)c1ccnc(C(=O)Nc2cccc([C@H](C)Cc3nncn3C)c2)c1 [Compound 244]

Output line:
6.52 to 7.00
5.52 to 6.00
